# experimentalDetails: Spontaneous dephosphorylation of phosphoryloxytryptamines in 100 millimolar phosphate buffers, 85 degrees Celsius, one hour, HPLC at 220 nanometers
# recordedConditions: pH of 2.0 relative to pH of 3.0
metricName: absorbance detected for the hydroxytryptamine (dephosphorylation product)

CN(C)CCc1c[nH]c2cccc(O)c12 [psilocin, 3-[2-(dimethylamino)ethyl]-1H-indol-4-ol] = greater absorbance
NCCc1c[nH]c2cccc(O)c12 [4-HT, 3-(2-aminoethyl)-1H-indol-4-ol] = greater absorbance
C[N+](C)(C)CCc1c[nH]c2cccc(O)c12 [4-hydroxy-TMT] = greater absorbance
CNCCc1c[nH]c2cccc(O)c12 [norpsilocin, 3-[2-(methylamino)ethyl]-1H-indol-4-ol] = greater absorbance
